All figures here come from ChEMBL document CHEMBL5329172.

- target_under_test: YAP1-TEAD4 (Homo sapiens)
- Sequence (P46937 whole entry, the tested form may be a part): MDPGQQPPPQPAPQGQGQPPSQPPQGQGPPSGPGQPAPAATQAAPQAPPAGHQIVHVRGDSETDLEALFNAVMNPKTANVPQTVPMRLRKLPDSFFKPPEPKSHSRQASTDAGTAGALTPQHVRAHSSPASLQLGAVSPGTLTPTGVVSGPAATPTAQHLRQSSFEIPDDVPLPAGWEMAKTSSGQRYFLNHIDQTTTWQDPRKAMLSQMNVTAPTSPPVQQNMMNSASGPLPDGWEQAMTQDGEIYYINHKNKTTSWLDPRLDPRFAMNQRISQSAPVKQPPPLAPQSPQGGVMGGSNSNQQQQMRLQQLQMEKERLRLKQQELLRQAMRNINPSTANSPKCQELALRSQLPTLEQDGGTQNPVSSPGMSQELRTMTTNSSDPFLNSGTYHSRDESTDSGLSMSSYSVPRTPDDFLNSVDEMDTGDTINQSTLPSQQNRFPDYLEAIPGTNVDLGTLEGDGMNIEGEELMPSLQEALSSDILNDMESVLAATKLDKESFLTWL
- Sequence (Q15561 whole entry, the tested form may be a part): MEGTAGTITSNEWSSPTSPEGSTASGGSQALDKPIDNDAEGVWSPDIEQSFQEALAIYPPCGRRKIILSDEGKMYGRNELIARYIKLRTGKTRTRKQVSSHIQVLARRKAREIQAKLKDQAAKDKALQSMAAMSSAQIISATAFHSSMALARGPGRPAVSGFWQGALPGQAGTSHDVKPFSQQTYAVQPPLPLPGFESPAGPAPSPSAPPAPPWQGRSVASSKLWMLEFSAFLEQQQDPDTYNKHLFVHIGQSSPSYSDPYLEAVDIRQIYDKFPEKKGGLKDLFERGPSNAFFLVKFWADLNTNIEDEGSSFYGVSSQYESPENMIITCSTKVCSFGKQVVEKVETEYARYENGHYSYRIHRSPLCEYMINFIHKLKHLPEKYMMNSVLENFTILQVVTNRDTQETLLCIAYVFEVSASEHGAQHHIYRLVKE
- assay: Inhibition of GST-tagged TEAD4 (217 to 434 residues) (unknown origin) expressed in Escherichia coli BL21 (DE3) cells/FAM-labelled YAP1 (60 to 99 residues)(unknown origin) protein-protein interaction preincubated for 24 hrs at 4 degree C with TEAD4 followed by fluorescent labelled YAP1 addition by fluorescence polarization assay
Friendly reminder: IC50 below 8 µM is criterion met, at or above is criterion not met.

Q: Is IC50 of O=C(Nc1ccccc1)C1CCN(C(=O)CCl)CC1 strictly below 8 µM?
Ans: criterion not met

Q: Is IC50 of COc1ccccc1CN(C(=O)CCl)C(C(=O)NC1CCCCC1)c1ccncc1 (stereo not given) strictly below 8 µM?
Ans: criterion not met

Q: Is IC50 of COc1cccc(C2CC(Cc3cccs3)=NN2C(=O)CCl)c1OC (stereo not given) strictly below 8 µM?
Ans: criterion met

Q: Is IC50 of O=C(NCCc1ccccc1)C(c1cccs1)N(C(=O)CCl)c1ccc(Cl)cc1 (stereo not given) strictly below 8 µM?
Ans: criterion met
